The values you see were collected from PubChem BioAssay AID651955.

Attribute: activation
# Study Target: Trace amine-associated receptor 1 (Homo sapiens)
# Experiment Description: TAAR1 activation by candidate antagonists – cell-based, fluorescence, counter-screen for TAAR1 antagonist project (AID 651955);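 further: CHO cells stably expressing TAAR1 with calcium dye readout; 0% = DMSO vehicle and 100% = full agonist response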
# Run Parameters: hTAAR1 cell line, agonist mode, at 3 µM, hits give high values
Among all 2,400 compounds or so, about 40 (2%) were called active. A selection follows.

Guide cases for activation, answers given:
{"columns": ["Molecule", "activation"],
 "data": [
  ["COC(=O)c1sccc1NC(=O)c1cc(OC)c(OC)c(OC)c1", "6.39% (inactive)"],
  ["CSC(=S)N/N=C/c1c[nH]c2ccccc12", "12% (inactive)"],
  ["Cc1ccccc1OCC(=O)Nc1ccc(N2CCN(C(=O)C(C)C)CC2)c(Cl)c1", "10.6% (inactive)"],
  ["C=CCC[C@H](Cc1ccc(F)cc1)C(=O)OC[C@H](C)NC(=O)[C@H](CC=C)CC(=O)N(CCO)Cc1ccccc1", "6.83% (inactive)"]
]}

Now, please, on to the next molecule.
QUERY: Provide measured activation value, entry: COc1ccc(C(=O)Nc2ccccc2C(=O)N/N=C/c2ccc(O)c(OC)c2)cc1
RESULT: 8.37% (inactive)

====

# Study Target: Trace amine-associated receptor 1 (Homo sapiens) (UniProt Q96RJ0)
# Sequence (Q96RJ0 whole entry, looked up): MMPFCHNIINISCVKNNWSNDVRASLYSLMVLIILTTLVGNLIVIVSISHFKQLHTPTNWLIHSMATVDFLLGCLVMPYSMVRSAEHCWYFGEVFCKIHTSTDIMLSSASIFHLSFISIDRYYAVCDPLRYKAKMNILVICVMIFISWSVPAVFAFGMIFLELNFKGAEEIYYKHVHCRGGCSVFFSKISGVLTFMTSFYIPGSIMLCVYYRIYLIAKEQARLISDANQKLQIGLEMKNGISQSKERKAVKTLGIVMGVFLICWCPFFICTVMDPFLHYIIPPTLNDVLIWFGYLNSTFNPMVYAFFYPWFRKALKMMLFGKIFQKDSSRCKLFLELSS
# Experiment Description: TAAR1 activation by candidate antagonists – cell-based, fluorescence, counter-screen for TAAR1 antagonist project (AID 651955);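 further: CHO cells stably expressing TAAR1 with calcium dye readout; 0% = DMSO vehicle and 100% = full agonist response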
# Run Parameters: hTAAR1 cell line, agonist mode, at 3 µM, hits give high values
About 40 (2%) of roughly 2,400 compounds were called active. Not all results are given here.
Readout Kind: activation (%)
Form entry: value (%) — number only.

{"columns": ["Molecule", "Unit Descriptor", "activation"],
 "data": [
  ["O=C(NCCN1C(=O)S/C(=C\\c2cccnc2)C1=O)c1ccc(S(=O)(=O)N2CCCC2)cc1", "%", 6.63],
  ["CC(C)(C)OC(=O)NCCCCCNC(=O)c1nc[nH]c1C(=O)NCc1ccccc1", "%", 7.66],
  ["Cc1cccc(NC(=O)c2ccc(COc3ccccc3[N+](=O)[O-])o2)n1", "%", 1.12],
  ["COc1ccc(Cl)cc1NC(=O)CCS(=O)(=O)c1cc2c(cc1C)NC(=O)CO2", "%", 7.53],
  ["C=CCn1c(SCc2cccc(F)c2)nc2cc(C(=O)N3CCC(C(N)=O)CC3)ccc2c1=O", "%", 9],
  ["O=C(OCC(=O)N(CCc1ccccc1)Cc1ccccc1)c1ccccc1[N+](=O)[O-]", "%", 7.56],
  ["CSc1ncnc2c1ncn2CC(=O)C1CCC2C3CCC4=CC(=O)CCC4(C)C3CCC12C (stereo not given)", "%", 15.2],
  ["CSCCC(NC(=O)COc1ccccc1)C(=O)OCCOc1ccc(Br)cc1 (stereo not given)", "%", 4.8]
]}

QUERY: Write down measured activation (Trace amine-associated receptor 1 (Homo sapiens) (UniProt Q96RJ0)) for this molecule. CC(C)N(Cc1ccccc1)C(=O)COC(=O)c1ccccc1SCC(=O)N1CCCC1
RESULT: 10.5

QUERY: Write down measured activation (Trace amine-associated receptor 1 (Homo sapiens) (UniProt Q96RJ0)) for this molecule. O=C(Nc1ccccc1-c1nnn(CC(=O)N2CCN(c3ccccc3)CC2)n1)c1cccs1
RESULT: 6.9

QUERY: Write down measured activation (Trace amine-associated receptor 1 (Homo sapiens) (UniProt Q96RJ0)) for this molecule. CN(c1ccccc1)S(=O)(=O)c1cc(C(=O)Nc2nc3ccccc3[nH]2)ccc1Cl
RESULT: 4.12

QUERY: Write down measured activation (Trace amine-associated receptor 1 (Homo sapiens) (UniProt Q96RJ0)) for this molecule. Fc1ccc(/C=N/Nc2nc(-c3cccnc3)nc3ccccc23)cc1
RESULT: 3.24

QUERY: Write down measured activation (Trace amine-associated receptor 1 (Homo sapiens) (UniProt Q96RJ0)) for this molecule. COc1ccc2[nH]c(=O)c(CN(Cc3cccnc3)S(=O)(=O)c3ccccc3F)cc2c1
RESULT: 12.6

QUERY: Write down measured activation (Trace amine-associated receptor 1 (Homo sapiens) (UniProt Q96RJ0)) for this molecule. COc1cc2ccccc2cc1C(=O)Nc1ccc(NC(=O)c2cccs2)cc1
RESULT: 7.6

QUERY: Write down measured activation (Trace amine-associated receptor 1 (Homo sapiens) (UniProt Q96RJ0)) for this molecule. Clc1ccc(Nc2ncnc3c2nnn3Cc2ccccc2)cc1
RESULT: 6.12
